target: F protein of RS Long strain virus (native form, on virus and infected VERO cells) (Respiratory Syncytial Virus, UniProt P12568 26-574); test: cell-based or functional assay
Sequence (P12568 26-574): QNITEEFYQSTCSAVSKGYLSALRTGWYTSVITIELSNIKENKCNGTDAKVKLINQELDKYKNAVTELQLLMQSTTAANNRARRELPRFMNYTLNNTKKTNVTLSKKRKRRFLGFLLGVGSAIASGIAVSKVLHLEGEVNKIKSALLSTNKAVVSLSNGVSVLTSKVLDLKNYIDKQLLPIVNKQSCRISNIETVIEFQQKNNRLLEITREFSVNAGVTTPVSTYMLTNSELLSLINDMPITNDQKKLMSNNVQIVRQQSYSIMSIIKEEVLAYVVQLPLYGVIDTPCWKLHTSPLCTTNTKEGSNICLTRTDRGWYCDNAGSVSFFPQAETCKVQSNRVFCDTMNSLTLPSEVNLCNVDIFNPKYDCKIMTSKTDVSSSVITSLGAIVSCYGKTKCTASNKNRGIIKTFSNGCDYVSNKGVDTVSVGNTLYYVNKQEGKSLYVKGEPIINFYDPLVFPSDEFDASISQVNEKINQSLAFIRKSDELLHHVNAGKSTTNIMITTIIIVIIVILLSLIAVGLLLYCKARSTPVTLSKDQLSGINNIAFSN
Fusion-Inhibition Titer EC50 values, listed per item
Could you write the number and then its unit?

1) Fab19B Fraction B (94% glycovariant) (Fab, N-linked carbohydrate at Asn59 in 94% of the preparation) VH: QVQLVVESGGGLRPGGSLRLSCAASGTTLSGYTMHWVRQAPGKGLEWVSSITGGSNFINYSDSVKGRFTISRDNAKNSLYLQMNSLTAEDTAVYYCATAPIAPPYFDHWGQGTLVTVSS light: DIQMNFLNWYQQKPGEAPTLLIYDASTSQSGVPSRFSGSGSGMDFSLTISSLQPEDLAMYYCQASINTPLFGGGTRIDMRR	1.5 µg/mL

What does the record list as Fusion-Inhibition Titer EC50 for Fab19B (Fab, N-linked carbohydrate at Asn59 in <10% of the preparation (Table 4)) VH: QVQLVVESGGGLRPGGSLRLSCAASGTTLSGYTMHWVRQAPGKGLEWVSSITGGSNFINYSDSVKGRFTISRDNAKNSLYLQMNSLTAEDTAVYYCATAPIAPPYFDHWGQGTLVTVSS light: DIQMNFLNWYQQKPGEAPTLLIYDASTSQSGVPSRFSGSGSGMDFSLTISSLQPEDLAMYYCQASINTPLFGGGTRIDMRR ?
0.12 µg/mL

Any idea what its Fusion-Inhibition Titer EC50 is? The binder is mAb 19B (antibody, human IgG1, N-linked carbohydrate at Asn59 in part of the molecules (glycovariant), Human IgG1, kappa; also called Hu19B; version B) VH: QVQLVVESGGGLRPGGSLRLSCAASGTTLSGYTMHWVRQAPGKGLEWVSSITGGSNFINYSDSVKGRFTISRDNAKNSLYLQMNSLTAEDTAVYYCATAPIAPPYFDHWGQGTLVTVSS light: DIQMTQSPSSLSASVGDRVTITCRATQSVSNFLNWYQQKPGEAPTLLIYDASTSQSGVPSRFSGSGSGMDFSLTISSLQPEDLAMYYCQASINTPLFGGGTRIDMRR
2.5 µg/mL

Item Fab19B Fraction A (1% glycovariant) (Fab, N-linked carbohydrate at Asn59 in 1% of the preparation) VH: QVQLVVESGGGLRPGGSLRLSCAASGTTLSGYTMHWVRQAPGKGLEWVSSITGGSNFINYSDSVKGRFTISRDNAKNSLYLQMNSLTAEDTAVYYCATAPIAPPYFDHWGQGTLVTVSS light: DIQMNFLNWYQQKPGEAPTLLIYDASTSQSGVPSRFSGSGSGMDFSLTISSLQPEDLAMYYCQASINTPLFGGGTRIDMRR has what recorded Fusion-Inhibition Titer EC50?
0.89 µg/mL

Return reported Fusion-Inhibition Titer EC50; argument: Fab19B Fraction C (99% glycovariant) (Fab, N-linked carbohydrate at Asn59 in 99% of the preparation) VH: QVQLVVESGGGLRPGGSLRLSCAASGTTLSGYTMHWVRQAPGKGLEWVSSITGGSNFINYSDSVKGRFTISRDNAKNSLYLQMNSLTAEDTAVYYCATAPIAPPYFDHWGQGTLVTVSS light: DIQMNFLNWYQQKPGEAPTLLIYDASTSQSGVPSRFSGSGSGMDFSLTISSLQPEDLAMYYCQASINTPLFGGGTRIDMRR
3.7 µg/mL

Query: Fusion-Inhibition Titer EC50; subject: mAb 19B Fraction B (40% glycovariant) (antibody, human IgG1, N-linked carbohydrate at Asn59 in 40% of the preparation) VH: QVQLVVESGGGLRPGGSLRLSCAASGTTLSGYTMHWVRQAPGKGLEWVSSITGGSNFINYSDSVKGRFTISRDNAKNSLYLQMNSLTAEDTAVYYCATAPIAPPYFDHWGQGTLVTVSS light: DIQMNFLNWYQQKPGEAPTLLIYDASTSQSGVPSRFSGSGSGMDFSLTISSLQPEDLAMYYCQASINTPLFGGGTRIDMRR
3.8 µg/mL

Query: Fusion-Inhibition Titer EC50; subject: mAb 19B Fraction A (<5% glycovariant) (antibody, human IgG1, N-linked carbohydrate at Asn59 in <5% of the preparation) VH: QVQLVVESGGGLRPGGSLRLSCAASGTTLSGYTMHWVRQAPGKGLEWVSSITGGSNFINYSDSVKGRFTISRDNAKNSLYLQMNSLTAEDTAVYYCATAPIAPPYFDHWGQGTLVTVSS light: DIQMNFLNWYQQKPGEAPTLLIYDASTSQSGVPSRFSGSGSGMDFSLTISSLQPEDLAMYYCQASINTPLFGGGTRIDMRR
1.8 µg/mL
